EXPERIMENTAL_TARGET: T1, soluble human EREG fragment having a mature EGF domain structure (R&D Systems cat. no. 1195-EP/CF) (human, UniProt O14944 63-108)
T1 construct: bought; coated on ELISA plates; also called human epiregulin; recombinant human Epiregulin
T1 sequence (O14944 63-108 limits assumed): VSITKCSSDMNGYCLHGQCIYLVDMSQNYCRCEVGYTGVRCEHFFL
EXPERIMENT_NOTES: competitive ELISA on coated soluble human EREG fragment

BINDER	binding result
H87-G1d/L21-k (antibody, human IgG1, kappa, V domains shown) VH: QDQLVQSGAEVKKPGASVKVSCKASGFNIKDTYIQWVRQAPGQGLEWMGRIDPLTGQTKYQEKFEGRVTITADTSTNTAYMELSSLRSEDTAVYYCVRSGTSFDFWGQGTLVTVSS VL: DIQMTQSPSSLSASVGDRVTITCQASQDIHKYIAWYQQKPGQAPRLLIQYTSTLQPGVPSRFSGSGSGTDYTFTISSLQPEDIATYYCLQYDNLRTFGGGTKVEIER	binds
H61-G1d/LB-k (antibody, human IgG1, kappa, V domains shown, also called H61-G1/LB-k) VH: QDQLVQSGAEVKKPGASVKVSCKASGFNIKDTYIQWVRQAPGQGLEWMGRIDPLKGNTKYVPKFQGRVTITADTSTNTAYMELSSLRSEDTAVYYCVRSGTLFDFWGQGTLVTVSS VL: DIQMTQSPSSLSASVGDRVTITCKASQDIHKYIAWYQQKPGQAPRLLIQYTSTLQPGVPSRFSGSGSGTDYTFTISSLQPEDIATYYCLQYDNLRTFGGGTKVEIKR	binds
H23-G1d/LB-k (antibody, human IgG1, kappa, V domains shown, also called H23-G1/LB-k) VH: QDQLVQSGAEVKKPGASVKVSCKASGFNIKDTYIQWVRQAPGQGLEWMGRIDPLNGSTKYVPKFQGRVTITADTSTNTAYMELSSLRSEDTAVYYCVRSGTLFDFWGQGTLVTVSS VL: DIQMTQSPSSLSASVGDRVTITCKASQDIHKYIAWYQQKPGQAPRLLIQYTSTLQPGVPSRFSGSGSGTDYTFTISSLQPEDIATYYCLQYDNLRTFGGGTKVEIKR	binds

Reference for the values: patent US20160159919A1
